target: KRas G12S (Homo sapiens, UniProt P01116, G12S); construct: Biotinylated KRas (corresponding to amino acids 1-169, produced at Accelegan Inc.); biotin (biotinylated); purchased Accelegan Inc; assay: KRas binding assay, TR-FRET displacement of Cy5 labelled tracer; details: 60-minute incubation at room temperature, 1% DMSO, pH 7.5
Sequence (P01116 1-169 isoform P01116-2 G12S): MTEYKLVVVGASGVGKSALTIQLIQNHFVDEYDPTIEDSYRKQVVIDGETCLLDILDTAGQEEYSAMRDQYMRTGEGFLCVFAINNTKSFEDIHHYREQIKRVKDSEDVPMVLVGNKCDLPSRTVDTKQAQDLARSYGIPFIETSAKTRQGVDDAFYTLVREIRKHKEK
I'd be grateful if you could share measured IC50 for these entries.

Worked set:
CCc1c(F)ccc2cc(O)cc(-c3ncc4c(N5CC[C@H]6[C@@H](C5)[C@H]6C(=O)n5ccc(C)n5)nc(OC[C@@]56CCCN5C[C@H](F)C6)nc4c3F)c12 (stereo in doubt) [Example 99]
26 nM
CC(=O)N(C)C(=O)[C@H]1CCCN(c2nc(OC[C@@]34CCCN3C[C@H](F)C4)nc3c(F)c(-c4ccc(F)c5sc(N)c(C#N)c45)c(Cl)cc23)CC1 (atropisomer, axis not shown; (aS)) [Example 256]
2 nM
CCc1c(F)ccc2cc(O)cc(N3CCc4c(nc(OC[C@@]56CCCN5C[C@H](F)C6)nc4N4CCC(C(=O)n5ccc(C)n5)C4)C3)c12 (some centres unmarked) [Example 197]
28 nM
CCc1c(F)ccc2cc(O)cc(-c3ncc4c(N5CCC(C(=O)N(C)c6ccccn6)CC5)nc(OC[C@@]56CCCN5C[C@H](F)C6)nc4c3F)c12 [Example 62]
6330 nM
O=C(Oc1ccccc1F)C1CCN(c2nc(OCC34CCCN3CCC4)nc3c(F)c(-c4cccc5cccc(F)c45)ncc23)CC1 [Example 35]
47500 nM
O=C(Oc1ccccc1F)C1CCCN(c2nc(OCC34CCCN3CCC4)nc3c(F)c(-c4cccc5cccc(F)c45)ncc23)C1 (centres unmarked) [Example 52]
27100 nM
Cc1ccn(C(=O)C2CCCN(c3nc(OC[C@@]45CCCN4C[C@H](F)C5)nc4c(F)c(-c5ccc(F)c6sc(N)c(C#N)c56)c(Cl)cc34)C2)n1 (some centres unmarked) [Example 132]
17 nM
O=C(Oc1cc(F)cc(F)c1)C1CCN(c2nc(OCC34CCCN3CCC4)nc3c(F)c(-c4cccc5cccc(F)c45)ncc23)CC1 [Example 33]
> 100000 nM

// for each compound below, give its IC50
1. N#Cc1cccc(OC(=O)[C@@H]2[C@@H]3CC[C@H]2CN(c2nc(OCC45CCCN4CCC5)nc4c(F)c(-c5cccc6cccc(F)c56)ncc24)C3)c1 [Example 22]
2. CCc1c(F)ccc2cc(O)cc(-c3ncc4c(N5CCN(C(=O)n6nccn6)CC5)nc(OC[C@@]56CCCN5C[C@H](F)C6)nc4c3F)c12 (single isomer, unassigned) [Example 152]
3. CCc1c(F)ccc2cc(O)cc(-c3ncc4c(N5CCCC(C(=O)N(C)C(C)=O)CC5)nc(OC[C@@]56CCCN5C[C@H](F)C6)nc4c3F)c12 (some centres unmarked) [Example 285]

Resp:
1: > 100000 nM; 2: 84 nM; 3: 175 nM
